B1: MTMR15 (parent)
chain: YVKAKKSIDKDEEFAGSSPQSSKS

Variants of: B1
TEST SUMMARY: protein stability index of a GFP-peptide fusion (GPS, HEK-293T) (PSI 1-6); higher = more stable;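 also: lentivirally expressed fusions sorted by FACS into six bins by GFP to DsRed ratio, PSI derived from sequencing read proportions per bin multiplied by bin number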
RUN CONDITIONS: c terminus: a fixed tail appended
REPORTED PROPERTY: protein stability index
One number for each entry.

Respectfully, I request protein stability index for each entry included below.
1. K23M
2. K6G
3. K5I

Result:
3.1
3.15
2.29

Respectfully, I request protein stability index for each entry included below.
1. I8K
2. S21T

Result:
2.98
3.1
